Record type: GI50 measurement. Applies to: MDA-MB-435

Before answering, review these 4 worked examples.
>  <Mol Smiles>
Cc1nn(-c2ccccc2)c2nc(C)n(CC(=O)N/N=C/c3ccccc3O)c(=O)c12

>  <System Name>
MDA-MB-435

>  <Measured Property>
GI50

>  <Endpoint Value>
8.63 µM

$$$$
>  <Mol Smiles>
Clc1ccc(-c2nc3ccc(-c4nnc(SCc5ccccc5)o4)cc3[nH]2)cc1

>  <System Name>
MDA-MB-435

>  <Measured Property>
GI50

>  <Endpoint Value>
8.65 µM

$$$$
>  <Mol Smiles>
Cc1ccc(-c2cc(C(=O)N=Nc3c(O)[nH]c4ccc(F)cc34)c3ccccc3n2)cc1

>  <System Name>
MDA-MB-435

>  <Measured Property>
GI50

>  <Endpoint Value>
11.1 µM

$$$$
>  <Mol Smiles>
Nc1cccnc1/C=N/NC(=S)NCCNC(=O)c1ccc(-n2nc(-c3ccccc3O)nc2-c2ccccc2O)cc1

>  <System Name>
MDA-MB-435

>  <Measured Property>
GI50

>  <Endpoint Value>
0.561 µM

$$$$

Here's the next entry for you.
Ask: Please state recorded GI50 (tested on MDA-MB-435) of `COc1ccc(C(=O)/C=C/c2cc(C(F)(F)F)cc(C(F)(F)F)c2)cc1S(N)(=O)=O`
Reply: 1.35 µM

----------
- System: HCT-15 colon
- Assay Comment: NCI tumour cell line growth inhibition, 48 h
Reported values of TGI for individual entries
Output spec: scalar in µM, unitless text.

Before answering, review these 2 worked examples.
>  <Mol Smiles>
COc1ccc(C(=O)/C=C/c2cc(C(F)(F)F)cc(C(F)(F)F)c2)cc1S(N)(=O)=O

>  <Measured Property>
TGI

>  <Endpoint Value>
2.38

$$$$
>  <Mol Smiles>
COc1ccc(-c2cc(C(=O)N=Nc3c(O)[nH]c4ccccc34)c3ccccc3n2)cc1

>  <Measured Property>
TGI

>  <Endpoint Value>
24.7

$$$$

Here's the next entry for you.
Ask: Please state recorded TGI (tested on HCT-15 colon) of `Clc1ccc(-c2nc3ccc(-c4nnc(SCc5ccccc5)o4)cc3[nH]2)cc1`
Reply: 27.4

----------
Reported values of GI50 for individual entries
- Test system: SF-268 CNS
- Assay Comment: NCI tumour cell line growth inhibition, 48 h

Before answering, review these 3 worked examples.
>  <Mol Smiles>
COc1ccc(-c2cc(C(=O)N=Nc3c(O)[nH]c4ccccc34)c3ccccc3n2)cc1

>  <GI50>
4.43 µM

$$$$
>  <Mol Smiles>
Clc1ccc(-c2nc3ccc(-c4nnc(SCc5ccccc5)o4)cc3[nH]2)cc1

>  <GI50>
7.59 µM

$$$$
>  <Mol Smiles>
COc1ccc(C(=O)/C=C/c2cc(C(F)(F)F)cc(C(F)(F)F)c2)cc1S(N)(=O)=O

>  <GI50>
2.38 µM

$$$$

Here's the next entry for you.
Ask: I have this molecule here, `COc1ccc(-c2cc(C(=O)N=Nc3c(O)[nH]c4ccc(Cl)cc34)c3ccccc3n2)cc1` , and I need its recorded GI50.
Reply: 16.2 µM

----------
- Tested on: MDA-MB-468 breast
- Assay Comment: NCI tumour cell line growth inhibition, 48 h
Reported values of TGI for individual entries
Output spec: scalar in µM, unitless text.

>  <Molecule>
Cc1ccc(N2CCN(C3=C(Cl)C(=O)c4ncccc4C3=O)CC2)cc1

>  <TGI / µM>
3.04

$$$$
>  <Molecule>
COc1cc(/C=C/c2cc(/C=C/c3ccc(O)c(OC)c3)n(-c3c(C)cccc3C)c(=O)n2)ccc1O

>  <TGI / µM>
3.61

$$$$
>  <Molecule>
CC(C)CCOc1ccc(-c2n[nH]c(C(F)(F)F)c2-c2cncc(C#N)c2)c(O)c1

>  <TGI / µM>
4.83

$$$$

Ask: I have this molecule here, `COc1ccc(-c2cc(C(=O)N=Nc3c(O)[nH]c4ccccc34)c3ccccc3n2)cc1` , and I need its recorded TGI.
Reply: 17.3

Ask: I have this molecule here, CS(=O)CCCCCN=C=S (stereo not given) , and I need its recorded TGI.
Reply: 9.94

----------
- Test system: LOX IMVI melanoma
- Assay Comment: NCI tumour cell line growth inhibition, 48 h
Measured Property: TGI (µM)
Output spec: scalar in µM, unitless text.

>  <Mol Smiles>
COc1ccc(C(=O)/C=C/c2cc(C(F)(F)F)cc(C(F)(F)F)c2)cc1S(N)(=O)=O

>  <Endpoint Value>
1.78

$$$$
>  <Mol Smiles>
COc1ccc(-c2cc(C(=O)N=Nc3c(O)[nH]c4ccccc34)c3ccccc3n2)cc1

>  <Endpoint Value>
19.3

$$$$
>  <Mol Smiles>
Nc1cccnc1/C=N/NC(=S)NCCNC(=O)c1ccc(-n2nc(-c3ccccc3O)nc2-c2ccccc2O)cc1

>  <Endpoint Value>
1.88

$$$$
>  <Mol Smiles>
Clc1ccc(-c2nc3ccc(-c4nnc(SCc5ccccc5)o4)cc3[nH]2)cc1

>  <Endpoint Value>
40.7

$$$$

Here's the next entry for you.
Ask: I have this compound here, `Cc1nn(-c2ccccc2)c2nc(C)n(CC(=O)N/N=C/c3ccccc3O)c(=O)c12` , and I need its recorded TGI.
Reply: 14

----------
- System: DU-145 prostate
- Assay Comment: NCI tumour cell line growth inhibition, 48 h
Measured Property: TGI (µM)
Output spec: scalar in µM, unitless text.

Before answering, review these 2 worked examples.
>  <Mol Smiles>
Cc1ccc(-c2cc(C(=O)N=Nc3c(O)[nH]c4ccc(F)cc34)c3ccccc3n2)cc1

>  <System Name>
DU-145 prostate

>  <TGI (µM)>
52.1

$$$$
>  <Mol Smiles>
COc1ccc(C(=O)/C=C/c2cc(C(F)(F)F)cc(C(F)(F)F)c2)cc1S(N)(=O)=O

>  <System Name>
DU-145 prostate

>  <TGI (µM)>
4.83

$$$$

Here's the next entry for you.
Ask: I have this molecule here, `COc1ccc(-c2cc(C(=O)N=Nc3c(O)[nH]c4ccc(Cl)cc34)c3ccccc3n2)cc1` , and I need its recorded TGI.
Reply: 29.7

----------
- Test system: HOP-92 NSCLC
- Assay Comment: NCI tumour cell line growth inhibition, 48 h; in the data active = GI50 below about 0.43 µM; inactive = the rest
Pick one and only one: 1 (yes) for active, 0 (no) for inactive

Ask: Hi, sorry to bother you, what did the test record for `Cc1nn(-c2ccccc2)c2nc(C)n(CC(=O)N/N=C/c3ccccc3O)c(=O)c12` ?
Reply: 0 (no)

Ask: Hi, sorry to bother you, what did the test record for `COc1ccc(-c2cc(C(=O)N=Nc3c(O)[nH]c4ccc(Cl)cc34)c3ccccc3n2)cc1` ?
Reply: 0 (no)

Ask: Hi, sorry to bother you, what did the test record for `Clc1ccc(-c2nc3ccc(-c4nnc(SCc5ccccc5)o4)cc3[nH]2)cc1` ?
Reply: 0 (no)

Ask: Hi, sorry to bother you, what did the test record for `Nc1cccnc1/C=N/NC(=S)NCCNC(=O)c1ccc(-n2nc(-c3ccccc3O)nc2-c2ccccc2O)cc1` ?
Reply: 1 (yes)

Ask: Hi, sorry to bother you, what did the test record for `COc1ccc(-c2cc(C(=O)N=Nc3c(O)[nH]c4ccccc34)c3ccccc3n2)cc1` ?
Reply: 0 (no)

----------
- Test system: HS 578T breast
- Assay Comment: NCI tumour cell line growth inhibition, 48 h
Reported values of TGI for individual entries

Before answering, review these 3 worked examples.
>  <Mol Smiles>
Cc1nn(-c2ccccc2)c2nc(C)n(CC(=O)N/N=C/c3ccccc3O)c(=O)c12

>  <Endpoint Value>
70.9 µM

$$$$
>  <Mol Smiles>
Cc1ccc(-c2cc(C(=O)N=Nc3c(O)[nH]c4ccc(F)cc34)c3ccccc3n2)cc1

>  <Endpoint Value>
66.3 µM

$$$$
>  <Mol Smiles>
Nc1cccnc1/C=N/NC(=S)NCCNC(=O)c1ccc(-n2nc(-c3ccccc3O)nc2-c2ccccc2O)cc1

>  <Endpoint Value>
> 100 µM

$$$$

Here's the next entry for you.
Ask: I have this molecule here, `Clc1ccc(-c2nc3ccc(-c4nnc(SCc5ccccc5)o4)cc3[nH]2)cc1` , and I need its recorded TGI.
Reply: > 100 µM

----------
- Tested on: MDA-MB-468 breast
- Assay Comment: NCI tumour cell line growth inhibition, 48 h
Reported values of GI50 for individual entries

>  <Mol Smiles>
CCCCCCCC/C=C/CCCCCCCCC1=NCCN1CCO

>  <Endpoint Value>
10.3 µM

$$$$

Ask: I have this compound here, `COC(=O)c1ccc2c(c1)nc(-c1cc3ccccc3[nH]c1=O)n2-c1cc(C(C)(C)C)[nH]n1` , and I need its recorded GI50.
Reply: 13.7 µM

Ask: I have this compound here, `COc1cc(NCCCCN=C(N)NC(N)=NC(C)C)c2ncccc2c1` , and I need its recorded GI50.
Reply: 0.106 µM

Ask: I have this compound here, `Cc1nn(-c2ccccc2)c2nc(C)n(CC(=O)N/N=C/c3ccccc3O)c(=O)c12` , and I need its recorded GI50.
Reply: 3.36 µM

Ask: I have this compound here, `Clc1ccc(-c2nc3ccc(-c4nnc(SCc5ccccc5)o4)cc3[nH]2)cc1` , and I need its recorded GI50.
Reply: 3.32 µM

Ask: I have this compound here, `NCCCNc1nc2ccccc2c2c(=O)c3cc(C(F)(F)F)ccc3sc12` , and I need its recorded GI50.
Reply: 1.53 µM
